test system: Saccharomyces cerevisiae; assay: protein stability index of tFT-peptide fusion (C-terminal peptide) (PSI (0-1 scale)); higher = more stable (slower turnover); settings: genetic background: das1 deletion; temperature: 30 C
assay_endpoint: protein stability index

>>> result("MKGPAALWDVQF [ARP9 C-terminal 12 aa]")
0.724
>>> result("CIGDTDYIERYD [CDA1 C-terminal 12 aa]")
0.694
>>> result("PEHPGNKRAGSG [YER145C-A C-terminal 12 aa]")
0.689
>>> result("SSASPEVDCRCG [YLR444C C-terminal 12 aa]")
0.705
>>> result("TVRALNPFMKRV [SSD1 C-terminal 12 aa]")
0.689
>>> result("TYFSKQFLKKEL [LTP1 C-terminal 12 aa]")
0.746
>>> result("KVCVCMTINSYN [YDR154C C-terminal 12 aa]")
0.585
>>> result("IFFILYTLFKLF [SFT1 C-terminal 12 aa]")
0.422
>>> result("KYFHEDVSEDAY [MET5 C-terminal 12 aa]")
0.707
>>> result("IAEEIISMFAEN [YNR064C C-terminal 12 aa]")
0.692
>>> result("GPSVMCTLYLTF [ARE2 C-terminal 12 aa]")
0.585
>>> result("HWRSVYDEFGEL [APE1 C-terminal 12 aa]")
0.721

----------
system: Saccharomyces cerevisiae; assay: protein stability index of tFT-peptide fusion (C-terminal peptide) (PSI (0-1 scale)); higher = more stable (slower turnover); conditions: genetic background: wild type; temperature: 30 C
Threshold check on protein stability index: at or above 0.7 gives 1, strictly below gives -1.

>>> class("KEQYFKGSKKPI")
-1
>>> class("INTNASSWRICK")
1
>>> class("DPGKWMRCHICE")
1
>>> class("SIPVPFSFPLFI")
-1
>>> class("GIGLSVGDVLGC")
1
>>> class("PPFPLACPPLLF")
-1
>>> class("PWVGRFVRLGVR")
-1
>>> class("RGRPRRGGGVSG")
1
>>> class("RKQRERGKCGKR")
1
>>> class("DVLGCFDYLLFR")
-1
>>> class("RLREVVHKYNSI")
1
>>> class("GSLLWSGWSTCY")
1
>>> class("PSPPPPLPPHPS")
1
>>> class("RLWSSFKRHGAA")
1
>>> class("GVKSQLYSFVWF")
-1
>>> class("LCFRSLFLCSLF")
-1
>>> class("LARASLVLPPSG")
-1
>>> class("VGTVREVYCQGG")
-1
>>> class("WDGGGGGFGLVV")
1
>>> class("ISCGERSRGGGK")
-1
>>> class("PIGFSHISFSPS")
-1
>>> class("RRADFSWPVVVE")
-1
>>> class("VDRGGRVGERGR")
-1
>>> class("RKQKRGSKKKKQ")
1
>>> class("QLHGWMTRNPLL")
1
>>> class("SGLFGDAVPCCV")
-1
>>> class("FFFFLVPVHCVI")
-1
>>> class("RLVAHPSRPLPV")
-1
>>> class("NYIIRKTKERHK")
1
>>> class("DGGGGGRAPRVR")
1

----------
test system: Saccharomyces cerevisiae; test: protein stability index of tFT-peptide fusion (C-terminal peptide) (PSI (0-1 scale)); higher = more stable (slower turnover); details: genetic background: doa10 deletion; temperature: 30 C
So basically every entry gets a class from its protein stability index, ranges being bin 1 = under 0.2, bin 2 = from 0.2 up to 0.3, bin 3 = 0.3 and over

>>> class("VACLRLTVYVMG")
"bin 1"
>>> class("SRCLALVICYRV")
"bin 1"
>>> class("WEPILLELELCV")
"bin 3"
>>> class("FLIFFVCLFRWK")
"bin 2"
>>> class("SLEACYCFVVLV")
"bin 1"
>>> class("GGVVGGVGVYDG")
"bin 3"
>>> class("IWWFKELRVCRV")
"bin 3"
>>> class("GSGCLFNRWRIL")
"bin 1"
>>> class("GGGWAVLLWVQV")
"bin 2"
>>> class("FSYFFIFFYMVC")
"bin 1"
>>> class("LFWTWVLVGVSV")
"bin 1"
>>> class("FLLLDFMLVSLV")
"bin 3"
>>> class("GESCGGSERRVG")
"bin 3"
>>> class("SVGCCLLCFFVL")
"bin 3"
>>> class("YTPPISRLLIFT")
"bin 3"
>>> class("GLLFWSGVVSWV")
"bin 2"
>>> class("RSKKIFLTKKYS")
"bin 1"
>>> class("FFFLILFPLSYS")
"bin 3"

----------
tested on: Saccharomyces cerevisiae; experiment: protein stability index of tFT-peptide fusion (C-terminal peptide) (PSI (0-1 scale)); higher = more stable (slower turnover); conditions: genetic background: wild type; temperature: 30 C
assay_endpoint: protein stability index

>>> numeric_readout("FVGMLSDRAPPP")
0.742
>>> numeric_readout("PRRFPFRHATSP")
0.635
>>> numeric_readout("GMDGRGGGGSVV")
0.723
>>> numeric_readout("VVRRHKRVLMRF")
0.659
>>> numeric_readout("MGRQSCCHKTSG")
0.643
>>> numeric_readout("VSARRTLRFSFE")
0.685
>>> numeric_readout("ILCPIKHKRKGS")
0.703
>>> numeric_readout("GCCACDIGGEGG")
0.642
>>> numeric_readout("NKFSAFSPETWS")
0.738
>>> numeric_readout("RGCGGGRVAREC")
0.689
>>> numeric_readout("APSTPTPPPPPP")
0.686
>>> numeric_readout("GVLLWWGRRRGE")
0.722
>>> numeric_readout("LHSPPLPFTPSP")
0.613
>>> numeric_readout("CTVWGLWRGWTA")
0.739
>>> numeric_readout("SCPTPRFPQCSS")
0.633
>>> numeric_readout("HRPDGTSRKSGA")
0.662
>>> numeric_readout("DRVHVSNGYLEF")
0.684
>>> numeric_readout("RSRSKKKKRKQY")
0.671
>>> numeric_readout("PGPHGVVPTGNE")
0.667

----------
tested on: Saccharomyces cerevisiae; assay: protein stability index of tFT-peptide fusion (C-terminal peptide) (PSI (0-1 scale)); higher = more stable (slower turnover); conditions: genetic background: das1 deletion; temperature: 37 C
# protein stability index per record follows
assay_endpoint: protein stability index

>>> numeric_readout("CSFELSVCLMLR")
0.198
>>> numeric_readout("FHLVIYWCVRGP")
0.45
>>> numeric_readout("SLFDQDCGGTVW")
0.784
>>> numeric_readout("VFGWWSVVLRVA")
0.249
>>> numeric_readout("WACAWRGMVKVG")
0.38
>>> numeric_readout("GLGVIFFLLGYG")
0.563
>>> numeric_readout("VLPLRCSWAAQG")
0.747
>>> numeric_readout("EGALSGGGKTSG")
0.718
>>> numeric_readout("LGNVTDVMHRLS")
0.734
>>> numeric_readout("LLLPSAPFLFLL")
0.435
>>> numeric_readout("IEVGVAILLLGE")
0.684
>>> numeric_readout("PCFACIAFVLFP")
0.509
>>> numeric_readout("THRAVGIGLRCC")
0.645
>>> numeric_readout("WCCCVSGFVWWM")
0.633
>>> numeric_readout("VMLVISRLLLLF")
0.613
>>> numeric_readout("MSHVCICRRLML")
0.712
>>> numeric_readout("TLDWKFGRGGIG")
0.406
>>> numeric_readout("LLVLPFFSLSRF")
0.873
>>> numeric_readout("GCLSFVAAVHLH")
0.697

----------
Reported values of protein stability index for individual entries
tested on: Saccharomyces cerevisiae; test: protein stability index of tFT-peptide fusion in deletion strain of DAS1 (PSI (0-1 scale)); higher = more stable (slower turnover)
assay_endpoint: protein stability index

>>> numeric_readout("PDKRNHLIKLLC")
0.577
>>> numeric_readout("RLIQPLPVQELN")
0.703
>>> numeric_readout("PDKRNHLAKLLN")
0.547
>>> numeric_readout("RLIGPLPVQFLN")
0.598
>>> numeric_readout("VRGAVGGNRLVG")
0.67
>>> numeric_readout("PSEAASFWRVVG")
0.702
>>> numeric_readout("PSLKASFWRVVG")
0.678
>>> numeric_readout("RSLAASFWRVVG")
0.689
>>> numeric_readout("FSMRWTFFYWVN")
0.44
>>> numeric_readout("FSMRWTIRYWVN")
0.38
>>> numeric_readout("CTSCGNKFRTNN")
0.695
>>> numeric_readout("VRGAVGGWRLVF")
0.677
>>> numeric_readout("PSLAASFWRVVGG")
0.682
>>> numeric_readout("VRGAVGRWRLVG")
0.669
>>> numeric_readout("LVVYASCVACIN")
0.0371
>>> numeric_readout("RLIQPLPVQTLN")
0.68
>>> numeric_readout("FSMRWTFRYWVNV")
0.5
>>> numeric_readout("CTICGYKFRTNN")
0.67
>>> numeric_readout("CTSCRYKFRTNN")
0.68
>>> numeric_readout("KKHKKGWKQKIN")
0.682
>>> numeric_readout("LVVYLSCVCCIN")
0.415
>>> numeric_readout("KMHKKGQKQKIN")
0.857
>>> numeric_readout("LKIRRQKMNHQN")
0.687
>>> numeric_readout("RLIQPLNVQFLN")
0.575
>>> numeric_readout("LKILRQKYNHQN")
0.7
>>> numeric_readout("CTSCGYKFRTMN")
0.682
>>> numeric_readout("RKHKKGQKQKIN")
0.574
>>> numeric_readout("VRGAVGPWRLVG")
0.687
>>> numeric_readout("FSMRWTFRYWFN")
0.503
>>> numeric_readout("VRGAVGTWRLVG")
0.694
>>> numeric_readout("KKMKKGQKQKIN")
0.758
>>> numeric_readout("KKHKKPQKQKIN")
0.659
>>> numeric_readout("PDKRNHLGKLLN")
0.593
>>> numeric_readout("LVVYLSCVVCIN")
0.0986
>>> numeric_readout("QRWRVGLWRGAS")
0.683
>>> numeric_readout("PSCAASFWRVVG")
0.691
>>> numeric_readout("LKILRQKMTHQN")
0.688
>>> numeric_readout("RLIQPLPVYFLN")
0.729
>>> numeric_readout("ARWPVGLWRGAS")
0.703
>>> numeric_readout("FSMRWTFRTWVN")
0.475
>>> numeric_readout("WSMRWTFRYWVN")
0.48
